Reference for the values: patent US5955423A

Test system: murine leukemia (L1210 or P388), murine solid tumor, human solid tumor and low malignancy fibroblast (LML) cells
Settings: μg/disk: 1 12.5; 2 25; 3 25; 4 20; 5 2.9; 6 250; 8 30; 5-FU 2.5; VP-16 5; taxol 0.2; ^c selective against drug-sensitive and drug-resistant cell lines, ^d drug-sensitive cell lines only
measurement name: Type of Cytotoxicity, Corbett Assay

Below, 5 compounds whose answers are already recorded.
compound	Type of Cytotoxicity, Corbett Assay
COc1ccc(C[C@H]2NC(=O)/C=C/C[C@@H]([C@H](C)/C=C/c3ccccc3)OC(=O)[C@H](CC(C)C)OC(=O)[C@H](C)CNC2=O)cc1	E/T
COc1ccc(C[C@H]2NC(=O)/C=C/C[C@@H]([C@H](C)/C=C/c3ccccc3)OC(=O)[C@H](CC(C)C)OC(=O)[C@H](C)CNC2=O)cc1Cl	E/T
COc1ccc(C[C@H]2NC(=O)/C=C/C[C@@H]([C@H](C)[C@@H](O)[C@@H](Cl)c3ccccc3)OC(=O)[C@H](CC(C)C)OC(=O)[C@H](C)CNC2=O)cc1Cl	E/T
CC(=O)O[C@H]1C(=O)[C@@]2(C)[C@H]([C@H](OC(=O)c3ccccc3)[C@]3(O)C[C@H](OC(=O)[C@H](O)[C@@H](NC(=O)c4ccccc4)c4ccccc4)C(C)=C1C3(C)C)[C@]1(OC(C)=O)CO[C@@H]1C[C@@H]2O [taxol, reference compound]	M/H/T
COc1ccc(C[C@H]2NC(=O)/C=C/C[C@@H]([C@H](C)[C@H]3O[C@@H]3c3ccccc3)OC(=O)[C@H](CC(C)C)OC(=O)[C@H](C)CNC2=O)cc1	E/T

Below: the item to evaluate.
Which Type of Cytotoxicity, Corbett Assay value belongs to `COc1ccc(C[C@H]2NC(=O)/C=C/C[C@@H]([C@H](C)[C@H]3O[C@@H]3c3ccccc3)OC(=O)[C@H](CC(C)C)OC(=O)[C@H](C)CNC2=O)cc1Cl` ?
E/T
